# method_description: Binding affinity to T.A-20 DNA duplex by CD titration
assay_metric: Kd (nM)
Your answer is read as nM, so omit the unit and give the number.

Q: Which Kd value is on record for Cn1cc(NC(=O)c2cc(NC(=O)c3cc(NC=O)cn3C)cn2C)cc1C(=O)NCCC(=N)N [STALLIMYCIN] ?
Result: 370

* * *

# method_description: Binding affinity to G.A-20 DNA duplex by CD titration
assay_metric: Kd (µM)
Your answer is read as µM, so omit the unit and give the number.

Q: Which Kd value is on record for Cn1cc(NC(=O)c2cc(NC(=O)c3cc(NC=O)cn3C)cn2C)cc1C(=O)NCCC(=N)N ?
Result: 3.7

* * *

# method_description: Binding affinity to MG.C-20 DNA duplex by CD titration
assay_metric: pKd
Quick note: pKd values are minus log10 of concentrations in mol/L.

Q: Which pKd value is on record for Cn1cc(NC(=O)c2cc(NC(=O)c3cc(NC=O)cn3C)cn2C)cc1C(=O)NCCC(=N)N [STALLIMYCIN] ?
Result: 5.12

* * *

# method_description: Binding affinity to OG.A-20 DNA duplex by CD titration
assay_metric: pKd
Quick note: pKd values are minus log10 of concentrations in mol/L.

Q: Which pKd value is on record for Cn1cc(NC(=O)c2cc(NC(=O)c3cc(NC=O)cn3C)cn2C)cc1C(=O)NCCC(=N)N ?
Result: 6.70

* * *

# method_description: Binding affinity to AP.A-20 DNA duplex by CD titration
assay_metric: pKd
Quick note: pKd values are minus log10 of concentrations in mol/L.

Q: Which pKd value is on record for Cn1cc(NC(=O)c2cc(NC(=O)c3cc(NC=O)cn3C)cn2C)cc1C(=O)NCCC(=N)N ?
Result: 5.70
